Biological target: T1, human BMP10 (Bone Morphogenetic Protein 10 Preproprotein [Homo sapiens], NP_055297) (human, UniProt O95393 317-424)
T1 construct: Bought recombinant protein; also called huBMP10; rhBMP10 (R&D Cat#2926-BP-025)
T1 sequence: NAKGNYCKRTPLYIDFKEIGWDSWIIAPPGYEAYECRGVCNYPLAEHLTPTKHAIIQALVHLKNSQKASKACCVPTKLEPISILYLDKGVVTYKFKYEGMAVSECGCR
Assay: Table 7 (caption: MSD-SET; Example 6 describes Biacore SPR on immobilised rhBMP10, Fab 31.25-1000 nM)

Binder: Antibody BMP9-2: MOR022962 (antibody, human IgG1, kappa, V domains shown) VH: QVQLLESGGGLVQPGGSLRLSCAASGFTFSSYAMSWVRQAPGKGLEWVSITLGTGHTHYADSVKGRFTISRDNSKNTLYLQMNSLRAEDTAVYYCARGSYIIWSALDYWGQGTLVTVSS VL: DIQMTQSPSSLSASVGDRVTITCRASQDIRSYLNWYQQKPGKAPKLLIYDASNLQSGVPSRFSGSGSGTDFTLTISSLQPEDFATYYCQQSDTSPLTFGQGTKVEIKR
binding result: no binding

Binder: Antibody BMP9-3: MOR023795 (antibody, human IgG1, lambda, V domains shown, Fully human, phage display) VH: EVQLVQSGAEVKKPGESLKISCKGSGYSFTTYWIGWVRQMPGKGLEWMGIIYPEGSYTTYSPSFQGQVTISADKSISTAYLQWSSLKASDTAMYYCARGKRVDASSFDYWGQGTLVTVSS VL: QSVLTQPPSVSGAPGQRVTISCSGSSSNIGDNYVSWYQQLPGTAPKLLIYRNNKRPSGVPDRFSGSKSGTSASLAITGLQAEDEADYYCSSTDKEHLVFGGGTKLTVLG
binding result: no binding

Binder: Antibody BMP9-8: MOR023793 (antibody, human IgG1, kappa, V domains shown, Fully human, phage display) VH: QVQLVQSGAEVKKPGASVKVSCKASGYTFTSYYMNWVRQAPGQGLEWMGWINPVQGNTNYAQKFQGRVTMTRDTSISTAYMELSRLRSEDTAVYYCARNYFDVWGQGTLVTVSS VL: DIQMTQSPSSLSASVGDRVTITCRASQTISNFLAWYQQKPGKAPKLLIYAASNLQSGVPSRFSGSGSGTDFTLTISSLQPEDFAVYYCQQLYAESITFGQGTKVEIKR
binding result: no binding
